Cited source: the Immune Epitope Database (IEDB)

# measurement target: HLA-A*31:01
# protocol text: IEDB peptide-MHC binding, purified MHC/competitive/radioactivity; filed as Kd, often an IC50 or EC50 that approximates it; bounds were set here for any values at or beyond the usual limits of such assays
# test context: source organism: Vaccinia virus WR
observable: log10 Kd (log10 of the value in µM)
Parameter value (number): base-10 log of Kd in µM.

Before answering, review these 2 worked examples.
- sequence: "ESMASLKSLY"
  measurement target: "HLA-A*31:01"
  quantitative readout: 0.50
- sequence: "FSKNILKYY"
  measurement target: "HLA-A*31:01"
  quantitative readout: 1.21

Hello, I would appreciate it if you could give log10 Kd for each entry below.
1. NFPQHVITK
2. ETKITFALKK
3. DLVKSYSLIR
4. FINFFNLLAK
5. RQTVSRFKK
6. LFKRERDAIK
7. KSDAKRNSK

output:
1.06
0.92
-0.76
0.26
-1.88
0.16
0.27

###

# measurement target: HLA-B*44:03
# protocol text: IEDB peptide-MHC binding, purified MHC/competitive/radioactivity; filed as Kd, often an IC50 or EC50 that approximates it; bounds were set here for any values at or beyond the usual limits of such assays
# test context: source organism: Mammarenavirus machupoense
observable: pKd
Numbers only, as −log10 of the molar value.

input: Give the measured pKd of TEFQSVTFTM .
output: 6.20

###

# measurement target: HLA-A*23:01
# protocol text: IEDB peptide-MHC binding, purified MHC/competitive/fluorescence; filed as Kd, often an IC50 or EC50 that approximates it; bounds were set here for any values at or beyond the usual limits of such assays
# test context: source organism: Entamoeba histolytica HM-1:IMSS
pKd: −log10 of the molar value.
observable: pKd

input: Sample KVSVGSYFC — what was its pKd?
output: ≤ 4.70

###

# measurement target: HLA-A*02:03
# protocol text: IEDB peptide-MHC binding, purified MHC/direct/fluorescence; filed as Kd, often an IC50 or EC50 that approximates it; bounds were set here for any values at or beyond the usual limits of such assays
# test context: source organism: Choclo virus
observable: Kd

input: Kd lookup needed for LRYGNVLDV , thanks.
output: ≥ 20 µM

###

# measurement target: HLA-A*11:01
# protocol text: IEDB peptide-MHC binding, purified MHC/competitive/fluorescence; bounds were set here for any values at or beyond the usual limits of such assays
# test context: source organism: Vaccinia virus WR
observable: IC50
// return the numeric value with its unit appended

input: GET /values?readout=IC50&item= ITCKAFGLY
output: 2820 nM

###

# measurement target: HLA-A*68:01
# protocol text: IEDB peptide-MHC binding, purified MHC/competitive/radioactivity; filed as Kd, often an IC50 or EC50 that approximates it; bounds were set here for any values at or beyond the usual limits of such assays
# test context: source organism: Mammarenavirus whitewaterense
observable: pKd
Give bare numbers, as −log10 of the molar value.

input: Requested field: pKd. Item: SSIIRSLPK
output: 6.65

###

# measurement target: HLA-B*57:01
# protocol text: IEDB peptide-MHC binding, purified MHC/competitive/fluorescence; filed as Kd, often an IC50 or EC50 that approximates it; bounds were set here for any values at or beyond the usual limits of such assays
# test context: source organism: Orthohantavirus andesense
observable: Kd

input: API: value(readout= Kd, system= HLA-B*57:01, query= YLIPSVTSL )
output: ≥ 20 µM
